For each entry below, report its Survival of ARPE-19 cells value.
System: ARPE-19 cells
method: Toxicity: survival of cells after exposure to dyes
Assay type: cell-based
experimentalSetup: 0.1% in PBS for 15 minutes at 37° C.
# number only, unit % dropped from output

If you can, please state the reported Survival of ARPE-19 cells value of CCN(Cc1cccc(S(=O)(=O)O)c1)c1ccc(C(=C2C=CC(=[N+](CC)Cc3cccc(S(=O)(=O)[O-])c3)C=C2C)c2ccc(Nc3ccc(OCc4ccccc4)cc3)cc2)c(C)c1 [(5)] .
81

If you can, please state the reported Survival of ARPE-19 cells value of CCN(Cc1cccc(S(=O)(=O)O)c1)c1ccc(C(=C2C=CC(=[N+](CC)Cc3cccc(S(=O)(=O)[O-])c3)C=C2C)c2ccc(Nc3ccc(OC)cc3)cc2)c(C)c1 [Compound (6)] .
103

If you can, please state the reported Survival of ARPE-19 cells value of CCN(Cc1cccc(S(=O)(=O)O)c1)c1ccc(C(=C2C=CC(=[N+](CC)Cc3cccc(S(=O)(=O)[O-])c3)C=C2C)c2ccc(Nc3ccc(Oc4ccccc4)cc3)cc2)c(C)c1 [(7)] .
81

If you can, please state the reported Survival of ARPE-19 cells value of CCN(Cc1cccc(S(=O)(=O)O)c1)c1ccc(C(=C2C=CC(=[N+](CC)Cc3cccc(S(=O)(=O)[O-])c3)C=C2C)c2ccc(Nc3ccc(Nc4ccccc4)cc3)cc2)c(C)c1 [(8)] .
79

* * *

Test system: ARPE-19 cells
method: Toxicity: survival of cells after exposure to dyes
Format: cell-based
experimentalSetup: dye concentration 0.025%
recordedMetric: Survival (%)
# number only, unit % dropped from output

If you can, please state the reported Survival value of CCN(Cc1cccc(S(=O)(=O)O)c1)c1ccc(C(=C2C=CC(=[N+](CC)Cc3cccc(S(=O)(=O)[O-])c3)C=C2C)c2ccc(Nc3ccc(OC)cc3)cc2)c(C)c1 .
103

If you can, please state the reported Survival value of CCN(Cc1cccc(S(=O)(=O)O)c1)c1ccc(C(=C2C=CC(=[N+](CC)Cc3cccc(S(=O)(=O)[O-])c3)C=C2C)c2ccc(Nc3ccc(Nc4ccccc4)cc3)cc2)c(C)c1 .
79

If you can, please state the reported Survival value of CCN(Cc1cccc(S(=O)(=O)O)c1)c1ccc(C(=C2C=CC(=[N+](CC)Cc3cccc(S(=O)(=O)[O-])c3)C=C2C)c2ccc(Nc3ccc(OCc4ccccc4)cc3)cc2)c(C)c1 .
81

If you can, please state the reported Survival value of CCN(Cc1cccc(S(=O)(=O)O)c1)c1ccc(C(=C2C=CC(=[N+](CC)Cc3cccc(S(=O)(=O)[O-])c3)C=C2C)c2ccc(Nc3ccc(Oc4ccccc4)cc3)cc2)c(C)c1 .
81

If you can, please state the reported Survival value of CCOc1ccc(N(CC)c2ccc(C(=C3C=CC(=[N+](CC)Cc4cccc(S(=O)(=O)[O-])c4)C=C3C)c3ccc(N(CC)Cc4cccc(S(=O)(=O)O)c4)cc3C)cc2)cc1 .
93

The reported measurements were obtained from patent US20230310661A1.
